Recorded measurements of Emax, one per entry
tested on: Ishikawa human endometrioma cell line; experiment: Ishikawa cell functional assay of estrogenic activity (alkaline phosphatase induction); format: cell-based; conditions: Homo sapiens, Ishikawa; percentage of the alkaline phosphatase activity induced by a saturating concentration of estradiol; read-out: Emax (maximal alkaline phosphatase activity)
readout name: Emax (%)

compound	value measured
CCC(=C(c1ccccc1)c1ccc(C=CC(N)=O)cc1)c1ccccc1 [compound 15]	8.9
CC/C(=C(\c1ccccc1)c1ccc(OCCN(C)C)cc1)c1ccccc1 [Tamoxifen, reference compound]	16.5
CCC(=C(c1ccccc1)c1ccc(C=CC(=O)NCCCOC)cc1)c1ccccc1 [compound 11]	14
CCC(=C(c1ccccc1)c1ccc(C2CC2C(=O)N(CC)CC)cc1)c1ccccc1 (stereo not drawn) [compound 3]	15.7
CCC(=C(c1ccccc1)c1ccc(C=C(C)C(=O)N(CC)CC)cc1)c1ccccc1 [Compound No. 4]	18.8
CCC(=C(c1ccccc1)c1ccc(C=CC(=O)O)cc1)c1ccccc1 [Compound No. 9]	3.8

----------
test system: Ishikawa human endometrioma cell line; experiment: Ishikawa cell functional assay of estrogenic activity (alkaline phosphatase induction); format: cell-based; settings: Homo sapiens, Ishikawa; percentage of the alkaline phosphatase activity induced by a saturating concentration of estradiol; read-out: Emax (maximal alkaline phosphatase activity)
readout name: Emax (%)

compound	readout name	measurement units	value measured
CCC(=C(c1ccccc1)c1ccc(C(C)=CC(=O)N(CC)CC)cc1)c1ccccc1 [Compound No. 5]	Emax	%	15
CCC(=C(c1ccccc1)c1ccc(C=CC(=O)N2CCOCC2)cc1)c1ccccc1 [compound 10]	Emax	%	14.8
C[C@]12CC[C@@H]3c4ccc(O)cc4CC[C@H]3[C@@H]1CC[C@@H]2O [Estradiol, estradiol, reference compound]	Emax	%	100
CCC(=C(c1ccccc1)c1ccc(C=CC(=O)NCCCO)cc1)c1ccccc1 [compound 22]	Emax	%	15.3

----------
readout name: melting point

molecule	value measured
CCC(=C(c1ccccc1)c1ccc(C=CC(=O)OC(C)(C)C)cc1)c1ccccc1	139 to 140 °C
CCC(=C(c1ccccc1)c1ccc(C=CC(=O)OC)cc1)c1ccccc1	133 to 135 °C
CCC(=C(c1ccccc1)c1ccc(C=CC(=O)NCCCO)cc1)c1ccccc1	144 to 146 °C
CCC(=C(c1ccccc1)c1ccc(C=CC#N)cc1)c1ccccc1	101 to 102 °C
CCC(=C(c1ccccc1)c1ccc(C=CC(N)=NO)cc1)c1ccccc1	182 to 185 °C
CCC(=C(c1ccccc1)c1ccc(C=CC(=O)N2CCOCC2)cc1)c1ccccc1	150 to 154 °C
CCC(=C(c1ccccc1)c1ccc(C=Cc2noc(C)n2)cc1)c1ccccc1	158 to 159 °C
CCC(=C(c1ccccc1)c1ccc(C2CC2C(=O)N(CC)CC)cc1)c1ccccc1 (stereo not drawn)	42 to 44 °C
CCC(=C(c1ccccc1)c1ccc(C=CC(=O)NCCCOC)cc1)c1ccccc1	132 to 135 °C
CCC(=C(c1ccccc1)c1ccc(C=CC(N)=O)cc1)c1ccccc1	200 to 202 °C
CCC(=C(c1ccccc1)c1ccc(C=CCO)cc1)c1ccccc1	80 to 83 °C
CCC(=C(c1ccccc1)c1ccc(C(C)=CC(=O)N(CC)CC)cc1)c1ccccc1	109 to 111 °C
